assay_info: Liver Microsome Stability Assay (monkey)
recorded_conditions: monkey liver microsomes, with NADPH, 1.0 uM compound
measurement_type: Liver Microsome Stability (Multiple Species): Monkey - % Remaining after 30 min w/NADPH (%)

Examples from the recorded data:
[
  {
    "compound": "O=C(Nc1nc(/C=C/c2cn3ccccc3n2)cs1)c1cccn1Cc1ccncc1",
    "value_reported": 0.74
  },
  {
    "compound": "Cc1cc(C(=O)Nc2nc([C@H]3CCCN3c3ccccc3)cs2)n(Cc2ccncc2)c1",
    "value_reported": 3.2
  },
  {
    "compound": "Cn1cccc1C(=O)Nc1nc([C@H]2CCCN2c2ccccc2)cs1",
    "value_reported": 30.9
  }
]

(A) CC(C)(C)c1nc(/C=C/c2csc(NC(=O)c3cccn3Cc3ccncc3)n2)co1
(B) O=C(Nc1nc(/C=C/c2cccc(=O)[nH]2)cs1)c1cccn1Cc1ccnc(F)c1
Asked: From the recorded data, which exceeds the other in Liver Microsome Stability (Multiple Species): Monkey - % Remaining after 30 min w/NADPH: A or B ? Identify your pick by its label.
Given back: A
